# PROTOCOL_SUMMARY: Pharmacokinetics of aconitine alkaloids in rat plasma after oral administration of Fuzi extract (d-SPE-LC-MS/MS)
# Assay type: in vivo, Sprague–Dawley rats
# MEASUREMENT_CONTEXT: male, Sprague-Dawley, n = 6, oral (gastric gavage) 10 mg/kg Fuzi extract, read-out: MRT0-∞
# MRT inf values compiled below
The figure you give is taken to be in h; do not add the unit.

Below, each entry is followed by its recorded MRT inf result.
COMPOUND: COCC12CN(C)C3C4C(OC)C1C3(C(OC)CC2O)C1CC2(O)C(OC)C(O)C4(OC(C)=O)C1C2OC(=O)c1ccccc1 (centres unmarked)
MRT inf (h): 7.03
//
COMPOUND: CCN1CC2(COC)C(O)CC(OC)C34C5CC6(O)C(OC)C(O)C(O)(C5C6OC(=O)c5ccccc5)C(C(OC)C23)C14 (centres unmarked)
MRT inf (h): 87.9
//
COMPOUND: CCN1CC2(OC(=O)c3ccccc3NC(C)=O)CCC(OC)C34C1C(CC23)C1(O)CC(OC)C2CC4C1(O)C2OC (centres unmarked)
MRT inf (h): 4.71
//
COMPOUND: COC[C@@]12CC[C@H](OC)[C@]34C(C([C@H](OC)[C@H]13)[C@]1(OC(C)=O)[C@H]3[C@@H](OC(=O)c5ccccc5)[C@](O)(C[C@H]34)[C@@H](OC)[C@@H]1O)N(C)C2
MRT inf (h): 27.6

Let us move to another entry and its MRT inf.
## Input Can you share its MRT inf? I mean this compound: `CCN1C[C@]2(COC)[C@H](O)C[C@H](OC)[C@@]34[C@@H]5C[C@@]6(O)[C@H](OC(=O)c7ccccc7)[C@@H]5[C@@](OC(C)=O)([C@@H]([C@H](OC)[C@H]23)[C@@H]14)[C@@H](O)[C@@H]6OC`
## Output 8.59

----------
# Stability RE % values compiled below
# Assay type: physicochemical, rat
# MEASUREMENT_CONTEXT: Room temperature (8 h), plasma QC 6.25 ng/mL
The figure you give is taken to be in %; do not add the unit.

COMPOUND: COCC12CN(C)C3C4C(OC)C1C3(C(OC)CC2O)C1CC2(O)C(OC)C(O)C4(OC(C)=O)C1C2OC(=O)c1ccccc1 (stereo not shown)
Stability RE % [%]: 0.97
//
COMPOUND: CCN1C[C@]2(COC)[C@H](O)C[C@H](OC)[C@@]34[C@@H]5C[C@@]6(O)[C@H](OC(=O)c7ccccc7)[C@@H]5[C@@](OC(C)=O)([C@@H]([C@H](OC)[C@H]23)[C@@H]14)[C@@H](O)[C@@H]6OC
Stability RE % [%]: −1.08
//
COMPOUND: CCN1CC2(COC)C(O)CC(OC)C34C5CC6(O)C(OC)C(O)C(O)(C5C6OC(=O)c5ccccc5)C(C(OC)C23)C14 (stereo not shown)
Stability RE % [%]: −7.89

Let us move to another entry and its Stability RE %.
## Input Can you share its Stability RE %? I mean this compound: `COC[C@@]12CC[C@H](OC)[C@]34C(C([C@H](OC)[C@H]13)[C@]1(OC(C)=O)[C@H]3[C@@H](OC(=O)c5ccccc5)[C@](O)(C[C@H]34)[C@@H](OC)[C@@H]1O)N(C)C2`
## Output −7.92
